Answer each item with its documented EC50.
# System: ZIKV replicon
# protocol_details: ZIKV replication inhibition assay (NanoLuc replicon in Vero cells)
# applied_conditions: Zika virus, Vero, 72 h, read-out: ZIKA Cell_Nanoluc, Vero cells with stable ZIKV replicon, 72 h, Nano-Glo readout

Reference set, count: 8
- molecule: "O=C([N-]c1c[n+](Cc2ccccn2)no1)Nc1cc(NC(=O)c2ccn3c2COCC3)cc(C(F)(F)F)c1 [Example 81]"
  EC50: "1000 to 20000 nM"
- molecule: "O=C(Cc1ccccc1)Nc1cc(NC(=O)[N-]c2c[n+](Cc3ccc(-c4cccc5c4CNC5)cn3)no2)cc(C(F)(F)F)c1 [Example 14]"
  EC50: "1000 to 20000 nM"
- molecule: "Cc1ccccc1CC(=O)Nc1cc(NC(=O)[N-]c2c[n+]([C@@H]3CCCC(CO)C3)no2)cc(C(F)(F)F)c1 (some centres unmarked) [Example 230]"
  EC50: "1000 to 20000 nM"
- molecule: "O=C([N-]c1c[n+](CC2CCCc3ccccc32)no1)Nc1ccnc(C(F)(F)F)c1 (racemic) [Example 200]"
  EC50: "100 to 1000 nM"
- molecule: "COC(=O)[C@H]1CCC[C@@H]([n+]2cc([N-]C(=O)Nc3cc(NC(=O)Cc4ccccc4C)cc(C(F)(F)F)c3)on2)C1 [Example 223]"
  EC50: "< 100 nM"
- molecule: "COc1ncc(-c2ccc(C[n+]3cc([N-]C(=O)Nc4cc(NC(=O)CCc5ccccc5)cc(C(F)(F)F)c4)on3)cc2)c(C)n1 [Example 9]"
  EC50: "100 to 1000 nM"
- molecule: "Cc1ccccc1CC(=O)Nc1cc(NC(=O)[N-]c2c[n+]([C@H]3CCC[C@@H](CN(C)C)C3)no2)cc(C(F)(F)F)c1 [Example 213]"
  EC50: "1000 to 20000 nM"
- molecule: "Cc1ccccc1CC(=O)Nc1cc(NC(=O)[N-]c2c[n+](C3CCCC(CO)C3)no2)cc(C(F)(F)F)c1 (centres unmarked) [Example 265]"
  EC50: "1000 to 20000 nM"

Can you give me EC50 for all of these, one by one?
1. Cc1ccccc1CC(=O)Nc1cc(NC(=O)[N-]c2c[n+]([C@@H]3CCCC[C@H]3O)no2)cc(C(F)(F)F)c1 [Example 203]
2. Cc1ncnc(C)c1-c1ccc(C[n+]2cc([N-]C(=O)N[C@H]3CC[C@H](C(F)(F)F)C3)on2)cc1 [Example 233]
3. Cc1ccccc1CC(=O)Nc1cc(NC(=O)[N-]c2c[n+]([C@H]3CCCC[C@H]3O)no2)cc(C(F)(F)F)c1 [Example 240]
4. NC(=O)c1ccc(C[n+]2cc([N-]C(=O)Nc3cc(NC(=O)Cc4ccccc4)cc(C(F)(F)F)c3)on2)cc1 [Example 104]
5. Cn1cncc1-c1ccc(C[n+]2cc([N-]C(=O)Nc3cc(NC(=O)Cc4ccccc4)cc(C(F)(F)F)c3)on2)nc1 [Example 6]

Result:
1: 100 to 1000 nM; 2: 100 to 1000 nM; 3: 1000 to 20000 nM; 4: 1000 to 20000 nM; 5: 1000 to 20000 nM

Problem: Lab request: please report EC50 under test system ZIKV replicon for Cc1ccccc1CC(=O)Nc1cc(NC(=O)[N-]c2c[n+]([C@H]3CCC[C@H](c4cncnc4)C3)no2)cc(C(F)(F)F)c1 [Example 221]
Result: 1000 to 20000 nM
